Origin of measurements: patent US7138361B2

Catalogue of Plant response rating, Surinam grass readings, one per entry.
tested on: Surinam grass (Brachiaria decumbens); assay: Test B preemergence; assay type: in vivo; conditions: preemergence; Rate 125 g/ha; scale of 0 to 100 where 0 is no effect and 100 is complete control; 13 to 15 days

COMPOUND	MEASURED ON	Plant response rating, Surinam grass
COc1cccc(N2CCC(n3ccc(C(C)(C)C)n3)C2=O)c1 (stereo not drawn)	Surinam grass (Brachiaria decumbens)	80
CCC(C)c1ccn(C2CCN(c3ccc(Cl)c(OC)c3)C2=O)n1 (stereo not drawn)	Surinam grass (Brachiaria decumbens)	100
Cc1cc(C)nc(N2CCC(n3ccc(C(C)(C)C)n3)C2=O)c1 (stereo not drawn)	Surinam grass (Brachiaria decumbens)	70
